// values below are reported viscosity
ASSAY CONTEXT: 318.15 K; 101.33 kPa; Liquid; Capillary tube (Ostwald / Ubbelohde) method
Please give a number only; it is taken to be in mPa·s.

Need viscosity of CCC(O)CO (stereo unspecified) , thanks. 17.41

Continuing:
Report viscosity for CC(O)C(C)O (stereo unspecified) please. 12.8

What measured viscosity goes with OCCCO ? 17.01

###

ASSAY CONTEXT: 308.15 K; 101.33 kPa; Liquid; Linear variable-path acoustic interferometer
OBSERVATION TYPE: speed of sound (m/s)
Number only, in m/s; omit the unit.

// worked examples, speed of sound included
Looking for the measured speed of sound of CCC(O)CO (centres undefined) , can you help? 1423.8

Param item = CC(O)CO (centres undefined) ; retrieve measured speed of sound. 1488.9

Further cases:
Consider the compound O and give its measured speed of sound. 1519

What value of measured speed of sound is listed for OCCCO ? 1616

Measured values drawn from the NIST ThermoML archive (doi:10.1021/je0340755) for this set.
